What pIC50 was measured for each of the following?
# Tested on: Pfa1 cells
# experimentSummary: Inhibition of non-apoptotic cell death after tamoxifen-induced GPx4 knockout in a recombinant cell line (Example B.4)
# Assay type: cell-based
# testParameters: Mus musculus, read-out: Pfa1/TAM IC50
pIC50: −log10 of the molar value.

Which pIC50 value is on record for CC1(C)CCC2(CC1)Nc1ccccc1N=C2NCc1ccccc1 ? > 6.00

Moving on to the next compound: Fc1ccc(CNC2=Nc3ccccc3NC23CCNCC3)c(F)c1 > 6.70

Do the same for COc1cccc(CNC2=Nc3ccccc3NC23CCOCC3)c1 please > 5.30

Repeat with CC(CCc1ccccc1)NC1=Nc2ccccc2NC12CCOCC2 (stereo not shown) > 6.30

Same question, COc1cccc(CNC2=Nc3ccccc3NC23CCCCC3)c1 this time > 6.30

Now this one: c1ccc(CNC2=Nc3cc4c(cc3NC23CCCCC3)OCCO4)cc1 > 6.70

Try this compound too: c1ccc(C(CNC2=Nc3ccccc3NC23CCOCC3)c2ccccc2)cc1 > 6.00

Try FC(F)(F)c1cccc(CNC2=Nc3ccccc3NC23CCOCC3)c1 next. > 6.30

Item: Fc1cc(Cl)ccc1CNC1=Nc2ccccc2NC12CCCCC2 > 6.70

Please give the result for CCCCCCCCN1CCC2(CC1)Nc1ccccc1N=C2NCc1ccccc1 too. > 7.00

Where do the numbers come from? From patent US10280179B2.
